target system: T1, Boi1, P38041
T1 sequence (P38041 1-86, looked up): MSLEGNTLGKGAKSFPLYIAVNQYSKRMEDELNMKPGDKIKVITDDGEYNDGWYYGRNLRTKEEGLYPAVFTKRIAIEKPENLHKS
assay remarks: SPOT array
experimental context: median of control spots 1162
measured parameter: SPOT intensity

QGYPRQPQRPQRYHP	0
STPQTMRQAPKRPDA	0
NMLKKKPLKKPLKRF	11
QPPLPSSAPPIPTSH	0

a. IAPIPMPKPNPTHIS
b. AGKRRLPLVRFKASD
Which value of SPOT intensity is smaller, the one for a or the one for b ? // output: label of the selected item
a
